For each record, write down the corresponding Nitrites—Nitrates released.
assay: Spontaneous nitric oxide release: nitrites+nitrates titrated by Griess colorimetry with nitrate reductase; conditions: test product final concentration 150 μM, incubated four hours at 37° C., pH 7.5 PBS buffer, Griess reagent, OD 540 nm
Supply the numeric figure in µM, leaving out any unit text.

Challenge: What does the data say about its Nitrites—Nitrates released? Entry: COc1ccc(N(N=O)c2ccc(CO)cc2)cc1 [Example 8]
Response given: 88

Challenge: Returns the measured Nitrites—Nitrates released for the input compound. Input: N#Cc1ccc(N(N=O)c2ccc(C(=O)O)cc2)cc1 [Example 14]
Response given: 69

Challenge: Return reported Nitrites—Nitrates released; argument: COc1ccc(N(N=O)c2ccc(C(=O)O)cc2)cc1 [Example 2]
Response given: 87

Challenge: Report Nitrites—Nitrates released for O=NN(c1ccc(F)cc1)c1ccc(C(=O)O)cc1 [Example 19] please.
Response given: 79

Challenge: Need Nitrites—Nitrates released, item O=NN(c1ccc(C(=O)O)cc1)c1ccc(C(=O)O)cc1 [Example 30, 4,4′-(Nitrosoimino)dibenzoic acid]
Response given: 58

Challenge: Form field: reported Nitrites—Nitrates released of COc1ccc(N(N=O)c2ccc(C#N)cc2)cc1 [Example 6]
Response given: 43

Challenge: Which measured Nitrites—Nitrates released value corresponds to COc1ccc(N(N=O)c2ccc(CC(=O)O)cc2)cc1 [Example 17] ?
Response given: 58

Challenge: I would be grateful if you could share the reported Nitrites—Nitrates released for CCOC(=O)c1ccc(N(N=O)c2ccc(S(C)(=O)=O)cc2)cc1 [Example 12] .
Response given: 38

Challenge: What value of measured Nitrites—Nitrates released is listed for COc1ccc(N(N=O)c2ccc(C(N)=O)cc2)cc1 [Example 42] ?
Response given: 79

Challenge: Item O=NN(c1ccc(C(=O)O)cc1)c1ccc([N+](=O)[O-])cc1 [Example 13] has what recorded Nitrites—Nitrates released?
Response given: 86

Challenge: GET /values?readout=Nitrites—Nitrates released&item= CS(=O)(=O)c1ccc(N(N=O)c2ccc(C(=O)O)cc2)cc1 [Example 15]
Response given: 88

Challenge: Which Nitrites—Nitrates released is reported for this compound? CCOC(=O)c1ccc(N(N=O)c2ccc(C#N)cc2)cc1 [Example 10]
Response given: 76

Challenge: Recorded Nitrites—Nitrates released of O=NN(c1ccc(C(=O)O)cc1)c1ccc(C(F)(F)F)cc1 [Example 5] , please.
Response given: 108

Challenge: # query: Nitrites—Nitrates released of entry COc1ccc(N(N=O)c2ccc(C(C)=O)cc2)cc1 [Example 18]
Response given: 81
